IC50 for assorted molecules
# measurementTarget: c-Met kinase (recombinant c-Met) (Homo sapiens)
# Construct: 0.27 nM recombinant c-Met
# Sequence (P08581 25-1390): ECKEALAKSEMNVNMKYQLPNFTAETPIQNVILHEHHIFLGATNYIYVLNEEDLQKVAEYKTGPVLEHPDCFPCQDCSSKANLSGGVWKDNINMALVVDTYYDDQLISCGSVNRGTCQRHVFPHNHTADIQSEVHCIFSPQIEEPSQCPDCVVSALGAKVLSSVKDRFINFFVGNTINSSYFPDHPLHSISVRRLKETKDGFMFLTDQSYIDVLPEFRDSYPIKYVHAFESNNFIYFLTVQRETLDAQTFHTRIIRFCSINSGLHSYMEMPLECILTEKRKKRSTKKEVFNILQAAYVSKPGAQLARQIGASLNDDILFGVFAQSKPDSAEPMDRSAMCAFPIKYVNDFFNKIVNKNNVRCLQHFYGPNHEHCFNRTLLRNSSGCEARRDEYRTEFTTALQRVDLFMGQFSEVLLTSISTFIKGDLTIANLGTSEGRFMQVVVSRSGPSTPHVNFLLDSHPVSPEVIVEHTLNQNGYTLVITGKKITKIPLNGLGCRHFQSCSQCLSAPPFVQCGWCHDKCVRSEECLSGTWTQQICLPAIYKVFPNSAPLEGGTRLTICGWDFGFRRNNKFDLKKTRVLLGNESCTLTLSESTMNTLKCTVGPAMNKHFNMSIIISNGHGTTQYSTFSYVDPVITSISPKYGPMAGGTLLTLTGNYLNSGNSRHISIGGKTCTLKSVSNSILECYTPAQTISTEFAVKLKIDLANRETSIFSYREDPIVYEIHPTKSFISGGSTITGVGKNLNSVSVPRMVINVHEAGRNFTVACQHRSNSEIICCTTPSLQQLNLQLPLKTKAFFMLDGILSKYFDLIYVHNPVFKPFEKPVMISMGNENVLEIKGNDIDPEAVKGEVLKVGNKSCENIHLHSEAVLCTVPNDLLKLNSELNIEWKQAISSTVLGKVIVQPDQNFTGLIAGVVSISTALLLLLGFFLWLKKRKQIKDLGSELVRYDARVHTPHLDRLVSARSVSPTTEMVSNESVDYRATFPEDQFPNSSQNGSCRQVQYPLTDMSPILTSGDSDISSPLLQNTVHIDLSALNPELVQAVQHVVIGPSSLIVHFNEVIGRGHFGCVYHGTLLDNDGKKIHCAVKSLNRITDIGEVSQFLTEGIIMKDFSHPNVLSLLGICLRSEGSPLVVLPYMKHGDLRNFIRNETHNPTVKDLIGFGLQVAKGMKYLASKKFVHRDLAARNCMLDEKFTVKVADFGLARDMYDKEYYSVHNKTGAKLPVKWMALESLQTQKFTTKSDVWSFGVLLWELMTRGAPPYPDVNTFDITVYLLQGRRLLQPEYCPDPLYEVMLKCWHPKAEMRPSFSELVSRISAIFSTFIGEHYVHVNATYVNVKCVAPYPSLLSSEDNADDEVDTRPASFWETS
# assayText: In vitro kinase assay I (homogeneous time-resolved fluorescence tyrosine kinase assay)

| molecule | measurementTarget | recordedMetric | result |
| --- | --- | --- | --- |
| CCn1cc(-n2ccc(=O)c(C(C)c3cccc(-c4ncc(OC5CNC5)cn4)c3)n2)cn1 (single isomer, unassigned) | c-Met kinase (recombinant c-Met) (Homo sapiens) | IC50 | < 100 nM |
| O=C1CN(CCOC(=O)Nc2cccc(Cc3nn(-c4cc(F)cc(F)c4)ccc3=O)c2)CCN1 | c-Met kinase (recombinant c-Met) (Homo sapiens) | IC50 | < 100 nM |
| CCCn1cnc(-c2cccc(Cc3nn(-c4cnn(CCOCc5ccccc5)c4)ccc3=O)c2)n1 | c-Met kinase (recombinant c-Met) (Homo sapiens) | IC50 | 100 to 1000 nM |

query: # return recorded IC50 for entry CCn1cnc(-c2cccc(C(C)c3nn(-c4cnn(C)c4)ccc3=O)c2)n1 (single isomer, unassigned) [Example 680]
result: 100 to 1000 nM

query: Provide only the value of recorded IC50 for Cn1cc(-n2ccc(=O)c(Cc3cccc(-c4ncc(OCC(O)CF)cn4)c3)n2)cn1 (racemic)
result: < 100 nM
